# ASSAY_REMARKS: Pharmacokinetic parameter Tmax was reported in rat after oral administration
# Type: ADME, organism-based
# CONDITION_LABEL: in vivo
compounds and their reported Tmax
Please state the figure in min; there is no need to write the unit.

[
  {
    "MOL_SMILES": "CC(C)[C@@H]1C(=O)N(S(C)(=O)=O)[C@@H]2CCN(C(=O)c3coc(CN4CCCC4)n3)[C@H]21.Cl",
    "Tmax / min": 15
  },
  {
    "MOL_SMILES": "CC(C)[C@@H]1C(=O)N(S(C)(=O)=O)[C@@H]2CCN(C(=O)C3CN(CC(C)(C)C)C3)[C@H]21.Cl",
    "Tmax / min": 45
  },
  {
    "MOL_SMILES": "CC(C)[C@@H]1C(=O)N(S(C)(=O)=O)[C@@H]2CCN(C(=O)c3cnc(CNC4CC4)cn3)[C@H]21.Cl",
    "Tmax / min": 15
  }
]

Now turn to the next compound.
Let me know recorded Tmax for "CC(C)[C@@H]1C(=O)N(S(C)(=O)=O)[C@@H]2CCN(C(=O)/C=C/CN3CCCCC3)[C@H]21.Cl" , thanks. 30

----------
# System: Canis familiaris
# ASSAY_REMARKS: pharmacokinetic parameter area under the curve (AUC) was reported in dog after intravenous administration
# Format: ADME, organism-based, Canis lupus familiaris
# CONDITION_LABEL: in vivo
ASSAY_ENDPOINT: AUC (ng·h/mL)
State just the number; it will be interpreted in ng·h/mL.

Give the value of AUC reported for the following: "CC(C)[C@@H]1C(=O)N(S(C)(=O)=O)[C@@H]2CCN(C(=O)c3cnc(CNC4CC4)cn3)[C@H]21.Cl" 220

Note down AUC recorded for "CC(C)[C@@H]1C(=O)N(S(C)(=O)=O)[C@@H]2CCN(C(=O)C3CN(CC(C)(C)C)C3)[C@H]21.Cl" 488

Specify reported AUC for the compound shown: "CC(C)[C@@H]1C(=O)N(S(C)(=O)=O)[C@@H]2CCN(C(=O)/C=C/CN3CCCCC3)[C@H]21.Cl" 405

Consider the compound "CC(C)[C@@H]1C(=O)N(S(C)(=O)=O)[C@@H]2CCN(C(=O)c3coc(CN4CCCC4)n3)[C@H]21.Cl" and give its recorded AUC. 286

----------
# Test system: Canis familiaris
# ASSAY_REMARKS: pharmacokinetic parameter area under the curve (AUC) was reported in dog after oral administration
# Assay type: ADME, organism-based, Canis lupus familiaris
# CONDITION_LABEL: in vivo
Here, each record is paired with measured AUC data.
Don't forget the unit after the value.

Sample records with AUC:
[
  {
    "MOL_SMILES": "CC(C)[C@@H]1C(=O)N(S(C)(=O)=O)[C@@H]2CCN(C(=O)c3coc(CN4CCCC4)n3)[C@H]21.Cl",
    "AUC": "308 ng·h/mL"
  },
  {
    "MOL_SMILES": "CC(C)[C@@H]1C(=O)N(S(C)(=O)=O)[C@@H]2CCN(C(=O)/C=C/CN3CCCCC3)[C@H]21.Cl",
    "AUC": "430 ng·h/mL"
  },
  {
    "MOL_SMILES": "CC(C)[C@@H]1C(=O)N(S(C)(=O)=O)[C@@H]2CCN(C(=O)c3cnc(CNC4CC4)cn3)[C@H]21.Cl",
    "AUC": "147 ng·h/mL"
  }
]

// below: AUC requested for another molecule
For the molecule "CC(C)[C@@H]1C(=O)N(S(C)(=O)=O)[C@@H]2CCN(C(=O)C3CN(CC(C)(C)C)C3)[C@H]21.Cl" , give its measured AUC value. 417 ng·h/mL
